Reference for the values: patent US9409908B2

Molecular target: purified human plasma kallikrein (Homo sapiens (Human), UniProt P03952)
Sequence (P03952 whole entry, looked up): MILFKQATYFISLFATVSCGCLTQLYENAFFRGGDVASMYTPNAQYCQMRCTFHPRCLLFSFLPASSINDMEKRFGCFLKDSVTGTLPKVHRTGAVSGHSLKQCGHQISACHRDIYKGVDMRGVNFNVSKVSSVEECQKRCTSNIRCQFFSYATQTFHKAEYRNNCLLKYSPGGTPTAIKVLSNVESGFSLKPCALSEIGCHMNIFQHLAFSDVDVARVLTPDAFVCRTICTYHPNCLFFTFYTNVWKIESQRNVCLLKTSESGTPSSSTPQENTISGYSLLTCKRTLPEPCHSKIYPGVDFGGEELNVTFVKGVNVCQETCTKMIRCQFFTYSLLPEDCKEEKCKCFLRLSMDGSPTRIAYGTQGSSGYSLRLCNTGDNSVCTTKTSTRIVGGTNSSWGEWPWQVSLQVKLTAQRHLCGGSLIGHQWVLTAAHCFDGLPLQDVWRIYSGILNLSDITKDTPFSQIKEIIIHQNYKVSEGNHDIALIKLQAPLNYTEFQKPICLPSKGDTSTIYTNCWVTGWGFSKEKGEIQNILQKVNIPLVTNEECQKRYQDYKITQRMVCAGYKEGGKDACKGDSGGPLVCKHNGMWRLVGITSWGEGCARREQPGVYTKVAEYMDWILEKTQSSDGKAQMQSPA
Sequence (P03952 whole entry partner, looked up): as the sequence (P03952 whole entry, looked up) above
Assay: biochemical
Assay type: biochemical
Details: read-out: Plasma Kallikrein Ki
Where a name gives a salt, the structure may show the parent alone.
So I've got a bunch of molecules here, and I need their Ki values.
# value in nM; strip the unit string

# input molecule: "C[C@@H]1CCC[C@H](N2CCC(c3c(C(F)(F)F)ccc(Cl)c3F)=CC2=O)c2cc(ccn2)-c2cc(C(=O)O)ccc2NC1=O" ; wanted: its Ki
17.4

Form field: reported Ki of COC(=O)Nc1ccc2c(c1)NC(=O)[C@H](C)CCC[C@H](N1CCC(c3c(C#N)ccc4c(N)n[nH]c34)=CC1=O)c1cc-2cc(OC)n1 [Example 8, TFA salt]
173

Returns the measured Ki for the input molecule. Input: COC(=O)Nc1ccc2c(c1)NC(=O)[C@H](C)CCC[C@H](N1CCC(C3CCCCC3)=CC1=O)c1cc-2ccn1 [Example 98, TFA salt]
36

Tell me the measured Ki of "COC(=O)c1ccc2c(c1)-c1cccc(c1)[C@@H](N1CCC(c3cccc(Cl)c3F)=CC1=O)CCC[C@@H](C)C(=O)N2" , please.
768

State the recorded Ki for this entry: "COC(=O)Nc1ccc2c(c1)NC(=O)[C@H](C)CCC[C@H](N1CCC(c3cccc(Cl)c3F)=CC1=O)c1nc-2c(C)[nH]1"
23.8

I have this molecule here, C[C@@H]1CCC[C@H](N2CCC(c3c(C#N)ccc(Cl)c3F)=CC2=O)c2cc(ccn2)-c2c(ccc(F)c2F)NC1=O [Example 208, TFA salt] , and I need its recorded Ki.
3.1

* * *

Molecular target: purified human Factor XIa (Homo sapiens (Human))
Sequence (P03951 whole entry, looked up): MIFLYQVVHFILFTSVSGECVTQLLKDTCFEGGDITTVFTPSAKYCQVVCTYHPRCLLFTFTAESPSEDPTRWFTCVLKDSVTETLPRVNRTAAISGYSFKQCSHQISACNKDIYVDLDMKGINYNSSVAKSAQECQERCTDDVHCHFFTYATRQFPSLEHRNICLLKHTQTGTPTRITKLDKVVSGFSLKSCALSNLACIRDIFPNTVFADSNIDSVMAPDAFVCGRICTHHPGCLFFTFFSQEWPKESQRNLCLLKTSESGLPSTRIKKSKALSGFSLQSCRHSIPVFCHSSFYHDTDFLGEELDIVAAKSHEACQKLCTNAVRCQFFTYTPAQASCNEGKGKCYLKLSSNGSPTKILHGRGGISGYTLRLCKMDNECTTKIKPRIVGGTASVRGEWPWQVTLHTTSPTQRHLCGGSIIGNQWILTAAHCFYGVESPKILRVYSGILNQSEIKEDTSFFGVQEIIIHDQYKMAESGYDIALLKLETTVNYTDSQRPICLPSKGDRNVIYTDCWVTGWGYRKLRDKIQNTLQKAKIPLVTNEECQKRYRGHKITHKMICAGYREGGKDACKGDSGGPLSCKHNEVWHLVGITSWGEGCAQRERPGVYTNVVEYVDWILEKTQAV
Sequence (P03951 whole entry partner, looked up): as the sequence (P03951 whole entry, looked up) above
Test: biochemical
Type: biochemical
Details: read-out: Factor XIa Ki
Counter-ions that a name gives are not always drawn.
For each record, write down the corresponding Ki.
Answer with a number only, understood to be in nM.

Consider the compound shown here: C[C@@H]1CCC[C@H](N2CCC(c3c(-n4cnnn4)ccc(Cl)c3F)=CC2=O)c2cc(ccn2)-c2cc(F)c(F)cc2NC1=O [Example 215, TFA salt] What is its recorded Ki?
0.07

Entry COC(=O)Nc1ccc2c(c1)NC(=O)[C@H](C)CCC[C@H](N1CCC(c3cc(Cl)ccc3C(F)(F)F)=CC1=O)c1cc-2ccn1 [Example 36, TFA salt] : reported Ki = ?
0.09

Query: Ki; subject: C[C@@H]1CCC[C@H](N2CCC(c3c(Br)ccc(Cl)c3F)=CC2=O)c2cc(ccn2)-c2c(ccc(F)c2F)NC1=O [Example 204, TFA salt]
4.46

Quick check: Ki of C[C@@H]1CCC[C@H](N2CCC(c3c(F)ccc(Cl)c3F)=CC2=O)c2cc(ccn2)-c2c(ccc(F)c2F)NC1=O [Example 203, TFA salt] ?
19.4

Can you look up the measured Ki of C[C@@H]1CCC[C@H](N2CCC(c3c(F)ccc(Cl)c3F)=CC2=O)c2cc(ccn2)-c2cc(I)c(N)cc2NC1=O [Example 61, TFA salt] for me?
24.6

Quick one: Ki of "COC(=O)Nc1ccc2c(c1)NC(=O)[C@H](C)CCC[C@H](N1CCC(c3c(F)ccc(C)c3F)=CC1=O)c1cc-2ccn1" ?
1.42

What does the data say about its Ki? Entry: CC(=O)N[C@@H]1C(Nc2ccc3c(c2)NC(=O)[C@H](C)CCC[C@H](N2CCC(c4c(F)ccc(Cl)c4F)=CC2=O)c2cc-3ccn2)O[C@H](CO)[C@@H](O)[C@@H]1O (stereo partly drawn)
8.51

# input compound: CC1CCC[C@H](N2CCC(c3c(F)ccc(Cl)c3F)=CC2=O)c2cc(ccn2)-c2ccc(C(N)=O)cc2NC1=O (stereo partly drawn) [Example 107, TFA salt] ; wanted: its Ki
17.4

Ki lookup needed for COC(=O)Nc1ccc2c(c1)NC(=O)[C@H](C)CCC[C@H](N1CCC(c3c(C#N)ccc(Cl)c3F)=CC1=O)c1cc-2ccn1 [Example 3, TFA salt] , thanks.
0.03

# lookup: Ki of "COC(=O)Nc1ccc2c(c1)NC(=O)[C@H](C)CCC[C@H](N1CCC(c3c(C#N)ccc(Cl)c3F)=CC1=O)c1cccc-2c1"
0.42

Value lookup for Ki; key = C[C@@H]1CCC[C@H](N2CCC(c3c(C#N)ccc(Cl)c3F)=CC2=O)c2cc(ccn2)-c2cc(F)c(F)cc2NC1=O [Example 211, TFA salt]
3.26

Which value of Ki has been reported for "COC(=O)Nc1ccc2c(c1)NC(=O)[C@H](C)CCC[C@H](N1CCC(c3c(Br)ccc(Cl)c3F)=CC1=O)c1cccc-2c1" in the records?
0.59

Give the measured Ki of COC(=O)Nc1ccc2c(c1)NC(=O)[C@H](C)CCC[C@H](N1CCC(C3CCNCC3)=CC1=O)c1cc-2ccn1 [Example 155, TFA salt] .
4.88

State the recorded Ki for this entry: CC(=O)c1ccc(Cl)c(F)c1C1=CC(=O)N([C@H]2CCCC(C)C(=O)Nc3cc(C(N)=O)ccc3-c3ccnc2c3)CC1 (stereo partly drawn) [Example 34, TFA salt]
4.17

For the compound C[C@@H]1CCC[C@H](N2CCC(c3c(F)ccc(Cl)c3F)=CC2=O)c2cc(cc[n+]2[O-])-c2ccc(N)cc2NC1=O [Example 70, TFA salt] , what Ki is on record?
8.02

Could you share which Ki value was measured for Cc1nnc(Nc2ccc3c(c2)NC(=O)[C@H](C)CCC[C@H](N2CCC(c4c(F)ccc(Cl)c4F)=CC2=O)c2ccnc-3c2)o1 [Example 37, TFA salt] ?
0.87

Entry under review: C[C@@H]1CCC[C@H](N2CCC(c3c(F)ccc(Cl)c3F)=CC2=O)c2cc(ccn2)-c2cc(F)c(F)cc2NC1=O [Example 205, TFA salt] . Reported Ki?
69.2

* * *

Target: purified human plasma kallikrein (Homo sapiens (Human), UniProt P03952)
Experiment: biochemical
Type: biochemical
Details: read-out: Plasma Kallikrein Ki
Counter-ions that a name gives are not always drawn.
measured quantity: Ki (nM)
# number only, unit nM dropped from output

// returns reported Ki for input C[C@@H]1CCC[C@H](N2CCC(c3c(F)ccc(Cl)c3F)=CC2=O)c2cc(ccn2)-c2c(F)cccc2NC1=O [Example 80, TFA salt]
38

Reported Ki for COC(=O)Nc1ccc2c(c1)NC(=O)[C@H](C)CCC[C@H](N1CCC(c3c(OC(F)F)ccc(Cl)c3F)=CC1=O)c1cc-2ccn1 [Example 32, TFA salt] : what is it?
6

Query (molecule): COC(=O)Nc1ccc2c(c1)NC(=O)[C@H](C)CCC[C@H](N1CCC(c3cncc(Cl)c3)=CC1=O)c1cc-2ccn1 [Example 99, TFA salt] ; field requested: Ki
2400

What value of Ki has been reported for the following molecule? C[C@@H]1CCC[C@H](N2CCC(c3c(F)ccc(Cl)c3F)=CC2=O)c2cc(ccn2)-c2cc3c(cc2NC1=O)NC(=O)C3 [Example 84, TFA salt]
16

Recorded Ki of C[C@@H]1CCC[C@H](N2CCC(c3c(F)ccc(Cl)c3F)=CC2=O)c2cc(ccn2)-c2ccc(Nc3ccncc3)cc2NC1=O [Example 89, TFA salt] , please.
5

Fill in the blank: the reported Ki of COC(=O)Nc1ccc2c(c1)NC(=O)[C@H](C)CCC[C@H](N1CCC(c3c(C#N)ccc(Cl)c3F)=CC1=O)c1cc-2ccn1 [Example 3, TFA salt] is ____.
1

Entry "C[C@@H]1CCC[C@H](N2CCC(c3c(F)ccc(Cl)c3F)=CC2=O)c2cc(ccn2)-c2ccc(CO)cc2NC1=O" has what Ki?
22.6

What value of Ki has been recorded for this entry: C[C@@H]1CCC[C@H](N2CCC(c3c(F)ccc(Cl)c3F)=CC2=O)c2cc(ccn2)-c2ccc(NC3O[C@H](CO)[C@@H](O[C@H]4O[C@H](CO)[C@@H](O[C@H]5O[C@H](CO)[C@@H](O)[C@H](O)[C@H]5O)[C@H](O)[C@H]4O)[C@H](O)[C@H]3O)cc2NC1=O (stereo partly drawn)
12.6

Please give the measured Ki for this molecule: C[C@@H]1CCC[C@H](N2CCC(c3c(-c4ccccc4)ccc(Cl)c3F)=CC2=O)c2cc(ccn2)-c2ccccc2NC1=O [Example 57, TFA salt]
351

Bench note: what Ki did "COC(=O)Nc1ccc2c(c1)NC(=O)[C@H](C)CCC[C@H](N1CCC(c3cc(Cl)ccc3C)=CC1=O)c1cc-2ccn1" show?
3.91

Can you share its Ki? I mean this molecule: COC(=O)Nc1ccc2c(c1)NC(=O)[C@H](C)C(F)CC[C@H](N1CCC(c3c(F)ccc(Cl)c3F)=CC1=O)c1cc-2ccn1 (stereo partly drawn)
2.42

* * *

Target: purified human plasma kallikrein (Homo sapiens (Human), UniProt P03952)
Test: biochemical
Type: biochemical
Conditions: Plasma Kallikrein Ki
Counter-ions that a name gives are not always drawn.
Please go through the items and note down their pKi.
Please treat pKi as minus the base-10 logarithm of the molar concentration.

Look up pKi: COC(=O)Nc1ccc2c(c1)NC(=O)[C@H](C)CCC[C@H](N1CC(C)C(c3c(F)ccc(Cl)c3F)=CC1=O)c1cc-2ccn1 (single isomer, unassigned; isomer 1) [Example 177]
8.40

I'd like to know its pKi. The molecule in question is "C[C@@H]1CCC[C@H](n2ccc(-c3c(F)ccc(Cl)c3F)cc2=O)c2cc(ccn2)-c2ccncc2NC1=O"
7.32

State the recorded pKi for this entry: COC(=O)Nc1ccc2c(c1)NC(=O)[C@H](C)CCC[C@H](N1CC(C)C(c3c(F)ccc(Cl)c3F)=CC1=O)c1cc-2ccn1 (single isomer, unassigned; isomer 2) [Example 178]
8.25

What value of measured pKi is listed for COC(=O)Nc1ccc2c(c1)C(=O)N[C@H](C)CCC[C@H](N1CCC(c3c(F)ccc(Cl)c3F)=CC1=O)c1cc-2ccn1 (single isomer, unassigned; diastereomer b) [Example 194, TFA salt] ?
6.51

Entry COC(=O)Nc1ccc2c(c1)NC(=O)C(C)(O)CCC[C@H](N1CCC(c3c(F)ccc(Cl)c3F)=CC1=O)c1cc-2ccn1 (single isomer, unassigned) [Example 124, TFA salt] : reported pKi = ?
6.32
